# TGI per record follows
Tested on: HOP-92 NSCLC
Assay: NCI tumour cell line growth inhibition, 48 h

molecule	test-target	TGI
CCN(Cc1ccccc1)c1ccc(CO)c(Cl)c1	HOP-92 NSCLC	15.3 µM
C[C@@H](O)[C@H](NC(=O)N[C@@H](CC(N)=O)c1nc([C@@H](N)CO)no1)C(=O)O	HOP-92 NSCLC	> 100 µM
O=C1[C@H]2ON(c3ccccc3)C(c3ccccc3)[C@H]2C(=O)N1c1ccc(Cc2ccc(N3C(=O)[C@@H]4ON(c5ccccc5)C(c5ccccc5)[C@@H]4C3=O)cc2)cc1 (some centres undefined)	HOP-92 NSCLC	> 100 µM
COc1cc2ncn(-c3cc(O[C@@H](C)c4ccccc4Cl)c(C(N)=O)s3)c2cc1OC	HOP-92 NSCLC	> 25 µM

====

Tested on: HT29 colon
Experiment: NCI tumour cell line growth inhibition, 48 h
*1 amine or outer side, *2 acyl side, *3 side chain or, on linkers, in order; H or OH if unused. Where a SMILES comes first, the peptide text is derived from it. Bridges are numbered along the chain shown (N, C = ends). Roman numbers before positions name the chains, in order. [ ]: non-standard residue; d: D form. Actinocin(9to1) = Cc1c2oc3c(C)ccc(C(=O)[*:1])c3nc-2c(C(=O)[*:2])c(N)c1=O; NMeT = CN[CH](C(=O)O)[CH](C)O; Sar = CNCC(=O)O
Measured TGI values are reported for all entries that follow.

compound	TGI
Cc1nc2sc(C(=O)Nc3cccc4ccccc34)c(N)c2cc1C(O)c1ccccc1 (stereo not given)	14.1 µM
COc1ccccc1C(O)(c1ccccc1)C(O)(c1ccccc1)c1ccccc1OC (stereo not given)	> 100 µM
Cc1occc1C(=S)Nc1ccc(Cl)c(C(=O)OC(C(C)C)C(C)C)c1	33.5 µM
C=C(C#N)C1OCC2OC(C)(C)OC21 (stereo not given)	> 100 µM
O=C1O[C@H](c2ccccc2)[C@@H]2CC3(CCN12)OCCO3	> 100 µM
COc1ccc(S(=O)(=O)NC(CCC(=O)NN)C(=O)NN)cc1 (stereo not given)	> 100 µM
COC(=O)C1=C(O)c2cc(-c3ccccc3)c(-c3ccccc3)c(C#N)c2NC(=O)C1	> 100 µM
CC(C)(C)CC(C)(C)c1cc2c(O)c(c1)Cc1cc(C(C)(C)CC(C)(C)C)cc(c1O)Cc1cc(C(C)(C)CC(C)(C)C)cc(c1O)Cc1cc(C(C)(C)CC(C)(C)C)cc(c1O)Cc1cc(C(C)(C)CC(C)(C)C)cc(c1O)C2	> 100 µM
CCCN(CCC)c1ccc(/C=C/c2ccc3cc(OCC)ccc3n2)cc1	> 100 µM
C=C(C)[C@@H]1CC[C@]2(C(=O)O)CC[C@]3(C)[C@H](CC[C@@H]4[C@@]5(C)CCC(NC(=O)c6cccc(OC(C)=O)c6OC(C)=O)C(C)(C)[C@@H]5CC[C@]43C)[C@@H]12 (stereo not given in full)	3.14 µM
COC(=O)[C@]12CC[C@H]3CC[C@H]([C@H]31)[C@H](c1ccccc1)N2	29.5 µM
CO[C@@H]1C[C@H]2[C@@H]3CC[C@H]([C@@H](C)CO)[C@@]3(C)CC[C@@H]2[C@@]2(C)CC[C@H]3C[C@]312	36.2 µM
CC(=C/C=C/C=C(C)\C=C\C=C(\C)C(=O)O)/C=C/C=C(/C)C(=O)O	> 100 µM
Cc1ccc(N2C(=O)C=C(C3=C(O)C(=O)N(c4ccc(C)cc4)C3=O)C2=O)cc1	> 100 µM
Cc1c2oc3c(C)ccc(C(=O)NC4C(=O)NC(C(C)C)C(=O)N5CCCC5C(=O)N(C)CC(=O)N(C)C(C(C)O)C(=O)OC4C)c3nc-2c(C(=O)NC2C(=O)NC(C(C)C)C(=O)N3CCCC3C(=O)N(C)CC(=O)N(C)C(C(C)O)C(=O)OC2C)c(N)c1=O (stereo not given) (I: TVP[Sar][NMeT] / II: TVP[Sar][NMeT]; ester I:1-I:C, II:1-II:C; linker I:N-II:N via Actinocin(9to1); configuration not given here)	> 100 µM
